Hi there, I'd appreciate the recorded mortality at 100 ppm for every entry that follows.
tested on: larvae of 28-spotted lady beetle (Epilachna vigintioctopunctana Fabricius); experiment: Test Example 8: insecticidal activity against larvae of 28-spotted lady beetle; type: in vivo; conditions: 120 h
# unit: % | format: bare number

Request: Record request: mortality at 100 ppm value, item CCN1C(=O)N(c2ccccc2)CSC1=NC(C)C
Response: 80

Request: # lookup: mortality at 100 ppm of Cc1ccc(N2CSC(=NC(C)(C)C)N(C(C)C)C2=O)cc1
Response: 100

Request: Entry under review: CCCCN=C1SCN(c2ccccc2)C(=O)N1CCCC . Reported mortality at 100 ppm?
Response: 100

Request: Which measured mortality at 100 ppm value corresponds to CC(C)N1C(=O)N(c2cccc(Cl)c2)CSC1=NC(C)(C)C ?
Response: 90

Request: Consider the molecule CCC(C)N1C(=O)N(c2cccc(C)c2)CSC1=NC(C)(C)C (centres unmarked) and give its measured mortality at 100 ppm.
Response: 100

Request: Quick one: mortality at 100 ppm for C=CCN=C1SCN(c2ccccc2)C(=O)N1CC=C ?
Response: 100

Request: Query: mortality at 100 ppm; subject: CC(C)N1C(=O)N(c2ccccc2)CSC1=NC(C)(C)C
Response: 100

Request: Please report the recorded mortality at 100 ppm for C=CCN1C(=O)N(c2ccccc2)CSC1=NCCC .
Response: 50

Request: Need mortality at 100 ppm of Cc1cccc(N2CSC(=NC(C)(C)C)N(C(C)C)C2=O)c1 , thanks.
Response: 100

Request: Could you tell me which mortality at 100 ppm is on file for CCCN1C(=O)N(c2cc(Cl)cc(Cl)c2)CSC1=NC(C)C ?
Response: 90

Request: What measured mortality at 100 ppm goes with CCC(C)N1C(=O)N(c2ccccc2)CSC1=NC(C)(C)CC(C)(C)C (centres unmarked) ?
Response: 100

Request: Data request, read-out mortality at 100 ppm, for CN=C1SCN(c2ccc(Br)cc2)C(=O)N1C
Response: 100

Request: For the molecule shown here, COc1ccc(N2CSC(=NC(C)(C)C)N(C(C)C)C2=O)cc1 , give the reported mortality at 100 ppm.
Response: 100

Request: What measured mortality at 100 ppm goes with Cc1cccc(N2CSC(=NC(C)C)N(C(C)C)C2=O)c1 ?
Response: 100

Request: Look at this molecule and give its reported mortality at 100 ppm. CCC(C)N=C1SCN(c2ccc(F)cc2)C(=O)N1C(C)CC (centres unmarked)
Response: 90

Request: # lookup: mortality at 100 ppm of CCC(C)N=C1SCN(c2cc(Cl)cc(Cl)c2)C(=O)N1C(C)CC (centres unmarked)
Response: 100

Request: Given CCC(C)N1C(=O)N(c2ccc(F)cc2)CSC1=NC(C)(C)C (centres unmarked) , state its recorded mortality at 100 ppm.
Response: 100

Request: Which mortality at 100 ppm value belongs to CC(C)N=C1SCN(c2ccc(Cl)c(Cl)c2)C(=O)N1Cc1ccccc1 ?
Response: 90

Request: Please look up its mortality at 100 ppm: CC(C)N1C(=O)N(c2ccccc2Cl)CSC1=NC(C)(C)C
Response: 90

Request: Look up mortality at 100 ppm: CCCN1C(=O)N(c2ccc(C)cc2)CSC1=NC(C)C
Response: 100

Request: Field request: mortality at 100 ppm | item: CCCN1C(=O)N(c2ccccc2)CSC1=NC(C)C
Response: 100

Request: Quick one: mortality at 100 ppm of CC(C)N1C(=O)N(c2ccc(Cl)cc2Cl)CSC1=NC(C)(C)C ?
Response: 100

Request: Entry C=CCN1C(=O)N(c2ccccc2)CSC1=NC(C)CC (centres unmarked) : reported mortality at 100 ppm = ?
Response: 100

Request: So what's the measured mortality at 100 ppm for this one? CCCCN1C(=O)N(c2ccccc2)CSC1=NC(C)C
Response: 100

Request: # query: mortality at 100 ppm of entry CCC(C)N=C1SCN(c2cccc(C)c2)C(=O)N1C(C)CC (centres unmarked)
Response: 100

Request: Which mortality at 100 ppm value belongs to C=CCN1C(=O)N(c2cc(Cl)cc(Cl)c2)CSC1=NC(C)C ?
Response: 100

Provenance of the data: patent US4159328A
